// reported Emax per item
Tested System: human mAChR M1 (Homo sapiens, UniProt P11229)
Construct: host or cells: CHO-K1 (ATCC), stably transfected using Lipofectamine 2000
Sequence (P11229 1-460): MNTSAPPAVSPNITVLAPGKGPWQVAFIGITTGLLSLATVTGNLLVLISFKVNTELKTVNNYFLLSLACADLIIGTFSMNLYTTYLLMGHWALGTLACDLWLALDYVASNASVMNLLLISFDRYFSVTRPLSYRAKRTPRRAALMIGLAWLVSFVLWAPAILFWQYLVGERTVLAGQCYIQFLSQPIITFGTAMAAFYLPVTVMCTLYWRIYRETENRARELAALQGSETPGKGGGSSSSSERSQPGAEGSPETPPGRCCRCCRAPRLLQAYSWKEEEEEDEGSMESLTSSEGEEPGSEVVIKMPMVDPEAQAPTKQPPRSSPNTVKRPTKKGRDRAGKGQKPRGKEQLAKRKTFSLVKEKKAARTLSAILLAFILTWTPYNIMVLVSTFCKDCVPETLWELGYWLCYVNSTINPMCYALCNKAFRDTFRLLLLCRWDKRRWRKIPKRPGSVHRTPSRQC
Experimental Protocol: mAChR M1 cell-based functional assay (calcium mobilization, Fluo-4, FDSS)
Run Parameters: CHO-K1 cells stably expressing hM1; calcium flux; PAM mode with EC20 acetylcholine

[
  {
    "Compound": "Cn1cc2c(-c3cc(F)c(CN4Cc5nc[nH]c5C4=O)c(F)c3)cccc2n1 [Compound 3]",
    "Emax, %": 78
  },
  {
    "Compound": "COCCn1cc2c(n1)C(=O)N(Cc1c(F)cc(-c3cccc4nn(C)cc34)cc1F)C2 [Compound 19]",
    "Emax, %": 45
  },
  {
    "Compound": "Cc1cc(-c2cc(F)c(CN3Cc4sccc4C3=O)c(F)c2)cc2cn[nH]c12 [Compound 29]",
    "Emax, %": 45
  },
  {
    "Compound": "Cc1cc(-c2cc(F)c(CN3Cc4cnn(CC5CCCO5)c4C3=O)c(F)c2)ccn1 (stereo not shown) [Compound 39]",
    "Emax, %": 65
  },
  {
    "Compound": "Cn1cc2c(-c3ccc(CN4Cc5sccc5C4=O)c(F)c3)cccc2n1 [Compound 40]",
    "Emax, %": 67
  },
  {
    "Compound": "Cn1ccc(-c2ccc(CN3Cc4sccc4C3=O)c(F)c2)n1 [Compound 42]",
    "Emax, %": 46
  },
  {
    "Compound": "Cn1cc2c(-c3cc(F)c(CN4Cc5ncsc5C4=O)c(F)c3)cccc2n1 [Compound 5]",
    "Emax, %": 73
  }
]
